test system: LeuT; assay: smFRET imaging of intracellular-labeled LeuT (H7C/R86C), FRET state occupancy and dynamics; format: biochemical, Aquifex aeolicus; details: LiCl titration in the presence of 250 μM Ala; Hill coefficient fixed at 2.0; read-out: EC50 of dose-response fit of intracellular intermediate-FRET state occupancy
assay metric: EC50 (mM)
# output: bare number, implied unit mM

Fill in: EC50 of [Li+] is ___
67
